System: Brassica napus L.
measurement_notes: Pre-emergence herbicidal inhibition assay, Petri dish test, BN
Format: in vivo
condition_notes: Brassica napus, 168 h, root, 7 days, read-out: EC50 BN Root
Overview of recorded EC50 for various compounds

| compound | experimental_system | EC50 |
| --- | --- | --- |
| CCc1n[nH]c(CC)c1CCP(=O)(O)O [Compound 5f] | Brassica napus L. | > 100 µg/mL |
| CCCc1n[nH]c(O)c1CC(P(=O)(O)O)P(=O)(O)O [Compound 12c] | Brassica napus L. | 55.1 µg/mL |
| CCCc1n[nH]c(O)c1CCP(=O)(O)O [Compound 5c] | Brassica napus L. | > 100 µg/mL |
| CCc1noc(CC)c1CC(P(=O)(O)O)P(=O)(O)O [Compound 13h] | Brassica napus L. | 39.2 µg/mL |
| Cc1n[nH]c(C)c1CC(P(=O)(O)O)P(=O)(O)O [Compound 12g] | Brassica napus L. | > 100 µg/mL |

###

experimental_system: recombinant E. coli DXR (EcDXR) (Escherichia coli)
Sequence (P45568 whole entry): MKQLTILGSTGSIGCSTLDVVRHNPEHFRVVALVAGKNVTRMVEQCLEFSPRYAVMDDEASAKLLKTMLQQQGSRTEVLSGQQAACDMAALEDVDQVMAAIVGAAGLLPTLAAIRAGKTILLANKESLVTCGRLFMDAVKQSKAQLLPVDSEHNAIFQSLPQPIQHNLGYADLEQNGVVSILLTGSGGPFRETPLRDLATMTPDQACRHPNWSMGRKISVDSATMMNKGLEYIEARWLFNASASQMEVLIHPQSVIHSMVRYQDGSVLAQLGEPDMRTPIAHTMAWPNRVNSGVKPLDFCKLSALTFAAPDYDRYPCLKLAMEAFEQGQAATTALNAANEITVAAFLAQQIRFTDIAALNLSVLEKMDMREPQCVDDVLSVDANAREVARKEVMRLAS
measurement_notes: biochemical
assay_readout: IC50 (µM)

| molecule | recorded_measurement |
| --- | --- |
| Cc1onc(O)c1CC(P(=O)(O)O)P(=O)(O)O [Compound 13a] | 77.9 |

###

experimental_system: recombinant E. coli DXR (EcDXR) (Escherichia coli)
measurement_notes: biochemical
condition_notes: read-out: InR (%) on DXR enzyme

| molecule | experimental_system | unit_symbol | inhibition at 100 µM |
| --- | --- | --- | --- |
| CCCc1onc(O)c1CCP(=O)(O)O | recombinant E. coli DXR (EcDXR) (Escherichia coli) | % | 7.5 |
| Cc1onc(O)c1CCP(=O)(O)O | recombinant E. coli DXR (EcDXR) (Escherichia coli) | % | 15.8 |
| CC(C)c1n[nH]c(O)c1CCP(=O)(O)O | recombinant E. coli DXR (EcDXR) (Escherichia coli) | % | 17.7 |
| CCc1n[nH]c(CC)c1CC(P(=O)(O)O)P(=O)(O)O [Compound 12h] | recombinant E. coli DXR (EcDXR) (Escherichia coli) | % | 2.3 |
| O=CN(O)CCCP(=O)(O)O [FOS, Fosmidomycin, reference compound] | recombinant E. coli DXR (EcDXR) (Escherichia coli) | % | 98.7 |
| Cc1n[nH]c(O)c1CCP(=O)(O)O | recombinant E. coli DXR (EcDXR) (Escherichia coli) | % | 11.9 |
| Cc1n[nH]c(C(F)(F)F)c1CC(P(=O)(O)O)P(=O)(O)O [Compound 12i] | recombinant E. coli DXR (EcDXR) (Escherichia coli) | % | 27.1 |
| CC(C)c1onc(O)c1CCP(=O)(O)O | recombinant E. coli DXR (EcDXR) (Escherichia coli) | % | 17.3 |
| Cc1noc(C)c1CC(P(=O)(O)O)P(=O)(O)O [Compound 13g] | recombinant E. coli DXR (EcDXR) (Escherichia coli) | % | 7.3 |
| O=P(O)(O)C(Cc1c(C(F)F)n[nH]c1O)P(=O)(O)O [Compound 12f] | recombinant E. coli DXR (EcDXR) (Escherichia coli) | % | 6.1 |
| CC1(C)CON(CCCC(P(=O)(O)O)P(=O)(O)O)C1=O | recombinant E. coli DXR (EcDXR) (Escherichia coli) | % | 29.5 |
| Cc1n[nH]c(C)c1CCP(=O)(O)O | recombinant E. coli DXR (EcDXR) (Escherichia coli) | % | 23 |
| O=P(O)(O)C(Cc1c(O)noc1C(F)(F)F)P(=O)(O)O [Compound 13e] | recombinant E. coli DXR (EcDXR) (Escherichia coli) | % | 54.9 |
| CCc1onc(O)c1CCP(=O)(O)O | recombinant E. coli DXR (EcDXR) (Escherichia coli) | % | 19.5 |
| CC(C)c1onc(O)c1CC(P(=O)(O)O)P(=O)(O)O [Compound 13d] | recombinant E. coli DXR (EcDXR) (Escherichia coli) | % | 14 |
| Cc1n[nH]c(C)c1CC(P(=O)(O)O)P(=O)(O)O [Compound 12g] | recombinant E. coli DXR (EcDXR) (Escherichia coli) | % | 11.6 |
| Cc1n[nH]c(O)c1CC(P(=O)(O)O)P(=O)(O)O [Compound 12a] | recombinant E. coli DXR (EcDXR) (Escherichia coli) | % | 13.7 |
| CC1(C)CON(CCCP(=O)(O)O)C1=O | recombinant E. coli DXR (EcDXR) (Escherichia coli) | % | 22.5 |
| Cc1noc(C)c1CCP(=O)(O)O | recombinant E. coli DXR (EcDXR) (Escherichia coli) | % | 12.1 |
| CCc1n[nH]c(CC)c1CCP(=O)(O)O | recombinant E. coli DXR (EcDXR) (Escherichia coli) | % | 32.4 |
| CCc1n[nH]c(O)c1CC(P(=O)(O)O)P(=O)(O)O [Compound 12b] | recombinant E. coli DXR (EcDXR) (Escherichia coli) | % | 21.9 |
| CCc1onc(O)c1CC(P(=O)(O)O)P(=O)(O)O [Compound 13b] | recombinant E. coli DXR (EcDXR) (Escherichia coli) | % | 27.4 |
| CCc1noc(CC)c1CCP(=O)(O)O | recombinant E. coli DXR (EcDXR) (Escherichia coli) | % | 11.7 |
| CCc1noc(CC)c1CC(P(=O)(O)O)P(=O)(O)O [Compound 13h] | recombinant E. coli DXR (EcDXR) (Escherichia coli) | % | 10.3 |
| CC(C)c1n[nH]c(O)c1CC(P(=O)(O)O)P(=O)(O)O [Compound 12d] | recombinant E. coli DXR (EcDXR) (Escherichia coli) | % | 12.4 |
| CCCc1n[nH]c(O)c1CCP(=O)(O)O | recombinant E. coli DXR (EcDXR) (Escherichia coli) | % | 6.1 |
| CCc1n[nH]c(O)c1CCP(=O)(O)O | recombinant E. coli DXR (EcDXR) (Escherichia coli) | % | 12.9 |
| Cc1onc(C(F)(F)F)c1CC(P(=O)(O)O)P(=O)(O)O [Compound 13i] | recombinant E. coli DXR (EcDXR) (Escherichia coli) | % | 30.3 |
| O=P(O)(O)C(Cc1c(C(F)(F)F)n[nH]c1O)P(=O)(O)O [Compound 12e] | recombinant E. coli DXR (EcDXR) (Escherichia coli) | % | 22.8 |
| Cc1onc(O)c1CC(P(=O)(O)O)P(=O)(O)O [Compound 13a] | recombinant E. coli DXR (EcDXR) (Escherichia coli) | % | 60.2 |
| CCCc1n[nH]c(O)c1CC(P(=O)(O)O)P(=O)(O)O [Compound 12c] | recombinant E. coli DXR (EcDXR) (Escherichia coli) | % | 32.3 |
| CCCc1onc(O)c1CC(P(=O)(O)O)P(=O)(O)O [Compound 13c] | recombinant E. coli DXR (EcDXR) (Escherichia coli) | % | 28.4 |

###

System: Echinochloa crus-galli
measurement_notes: Pre-emergence herbicidal inhibition assay, Petri dish test, EC
Assay type: in vivo
condition_notes: Echinochloa crus-galli, 168 h, read-out: EC50 EC Stalk
Hi! Just check whether EC50 is below 60 µg/mL. Below gives label 1, equal or above gives label 0.

| chem_smiles | assigned_category |
| --- | --- |
| Cc1noc(C)c1CCP(=O)(O)O | label 1 |
| Cc1onc(O)c1CCP(=O)(O)O | label 1 |
| Cc1n[nH]c(O)c1CCP(=O)(O)O | label 0 |
| CCc1n[nH]c(O)c1CCP(=O)(O)O | label 0 |
| CCc1onc(O)c1CCP(=O)(O)O | label 1 |

###

System: Echinochloa crus-galli
measurement_notes: Pre-emergence herbicidal inhibition assay, Petri dish test, EC
Assay type: in vivo
condition_notes: Echinochloa crus-galli, 168 h, root, 7 days, read-out: EC50 EC Root
assay_readout: EC50 (µg/mL)

| compound | assay_readout | unit_symbol | operator | recorded_measurement |
| --- | --- | --- | --- | --- |
| CCc1n[nH]c(O)c1CC(P(=O)(O)O)P(=O)(O)O [Compound 12b] | EC50 | µg/mL | = | 77.5 |
| CCCc1n[nH]c(O)c1CC(P(=O)(O)O)P(=O)(O)O [Compound 12c] | EC50 | µg/mL | = | 68.3 |
| CC1(C)CON(CCCP(=O)(O)O)C1=O | EC50 | µg/mL | > | 100 |
| Cc1n[nH]c(O)c1CC(P(=O)(O)O)P(=O)(O)O [Compound 12a] | EC50 | µg/mL | > | 100 |
| CC(C)c1onc(O)c1CC(P(=O)(O)O)P(=O)(O)O [Compound 13d] | EC50 | µg/mL | = | 27.2 |
| Cc1onc(C(F)(F)F)c1CC(P(=O)(O)O)P(=O)(O)O [Compound 13i] | EC50 | µg/mL | = | 32.1 |
| Cc1noc(C)c1CC(P(=O)(O)O)P(=O)(O)O [Compound 13g] | EC50 | µg/mL | = | 79.8 |
| CC(C)c1n[nH]c(O)c1CCP(=O)(O)O | EC50 | µg/mL | = | 32.1 |
| CCc1onc(O)c1CC(P(=O)(O)O)P(=O)(O)O [Compound 13b] | EC50 | µg/mL | = | 29.9 |
| O=P(O)(O)C(Cc1c(C(F)F)n[nH]c1O)P(=O)(O)O [Compound 12f] | EC50 | µg/mL | = | 36.5 |
| Cc1n[nH]c(C)c1CC(P(=O)(O)O)P(=O)(O)O [Compound 12g] | EC50 | µg/mL | = | 38.8 |
| CCCc1n[nH]c(O)c1CCP(=O)(O)O | EC50 | µg/mL | = | 76.3 |
| CCCc1onc(O)c1CC(P(=O)(O)O)P(=O)(O)O [Compound 13c] | EC50 | µg/mL | = | 43.9 |
| CC1(C)CON(CCCC(P(=O)(O)O)P(=O)(O)O)C1=O | EC50 | µg/mL | = | 40 |
| CCc1noc(CC)c1CCP(=O)(O)O | EC50 | µg/mL | > | 100 |
| O=P(O)(O)C(Cc1c(C(F)(F)F)n[nH]c1O)P(=O)(O)O [Compound 12e] | EC50 | µg/mL | = | 46.8 |

// data source = paper PMC10673511
